Taken from ChEMBL document CHEMBL2331410.

protocol summary: Solubility of the compound at pH 7
Assay type: physicochemical
condition description: buffer
metric name: solubility (µM)

INSERT INTO assay_data (smiles_representation, metric_name, reported_result) VALUES
  ('O=C(NCC1(N2CCN(c3ccccc3)CC2)CCOCC1)c1cccnc1Sc1ccccc1', 'solubility', 31),
  ('CN1CCc2c(cccc2C(=O)NCC2(N3CCN(c4ccccc4)CC3)CCCCC2)C1', 'solubility', 90);

* * *

Each item that follows carries a reported fraction unbound.
protocol summary: Plasma protein binding in rat by equilibrium dialysis method
Format: ADME, cell-free
condition description: read-out: PPB (converted)
metric name: fraction unbound

INSERT INTO assay_data (smiles_representation, metric_name, reported_result) VALUES
  ('O=C(NCC1(N2CCN(c3ccccc3)CC2)CCOCC1)c1cccnc1Sc1ccccc1', 'fraction unbound', 0.029),
  ('CN1CCc2c(cccc2C(=O)NCC2(N3CCN(c4ccccc4)CC3)CCCCC2)C1', 'fraction unbound', 0.044);

* * *

protocol summary: Solubility of the compound at pH 2
Type: physicochemical
condition description: buffer
metric name: solubility

INSERT INTO results (smiles_representation, reported_result) VALUES
  ('O=C(NCC1(N2CCN(c3ccccc3)CC2)CCOCC1)c1cccnc1Sc1ccccc1', '400 µM'),
  ('CN1CCc2c(cccc2C(=O)NCC2(N3CCN(c4ccccc4)CC3)CCCCC2)C1', '95 µM');

* * *

measured target: P2X purinoceptor 7 (Homo sapiens, UniProt Q99572)
Sequence (Q99572 whole entry): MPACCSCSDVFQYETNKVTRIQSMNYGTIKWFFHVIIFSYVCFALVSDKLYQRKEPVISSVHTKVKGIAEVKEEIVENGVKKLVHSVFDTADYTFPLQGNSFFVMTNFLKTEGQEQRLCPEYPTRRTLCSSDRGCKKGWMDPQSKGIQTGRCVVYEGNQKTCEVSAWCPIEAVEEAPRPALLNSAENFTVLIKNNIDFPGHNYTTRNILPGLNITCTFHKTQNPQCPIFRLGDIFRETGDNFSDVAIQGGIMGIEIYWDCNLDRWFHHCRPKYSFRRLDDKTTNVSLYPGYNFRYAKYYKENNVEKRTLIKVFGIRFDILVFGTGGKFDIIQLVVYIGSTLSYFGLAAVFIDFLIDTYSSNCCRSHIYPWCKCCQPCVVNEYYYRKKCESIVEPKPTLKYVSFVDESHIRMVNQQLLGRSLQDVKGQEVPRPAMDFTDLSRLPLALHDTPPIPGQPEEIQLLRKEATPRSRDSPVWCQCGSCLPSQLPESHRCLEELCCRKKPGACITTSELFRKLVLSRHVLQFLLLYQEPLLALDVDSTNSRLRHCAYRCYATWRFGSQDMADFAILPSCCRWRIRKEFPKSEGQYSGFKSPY
protocol summary: Antagonist activity at human recombinant P2X7 receptor expressed in human 1321N1 cells assessed as inhibition of BzATP-induced Ca2+ flux after 30 mins by FLIPR assay
Type: cell-based
metric name: IC50

INSERT INTO results (smiles_representation, metric_name, reported_result) VALUES
  ('CN1CCc2c(cccc2C(=O)NCC2(N3CCN(c4ccccc4)CC3)CCCCC2)C1', 'IC50', '20 nM');

* * *

protocol summary: Inhibition of rat nACHR
metric name: IC50

INSERT INTO results (smiles_representation, reported_result) VALUES
  ('CN1CCc2c(cccc2C(=O)NCC2(N3CCN(c4ccccc4)CC3)CCCCC2)C1', '0.91 µM');
